Provenance of the data: PubChem BioAssay (Tox21)

experiment: G protein-coupled receptor (GPCR) small molecule agonists, calcium flux assay: HEK293 wild type cell line counter screen (AID 1920065); conditions: HEK293 WT calcium flux, fluorescence, agonist mode; series mostly up to 57.6 µM; also: % is scaled to controls: 0 for no effect and ±100 for the full control effect
Active and inactive are the calls of the source. Calls follow the shape of the full dose curve.
PROPERTY: activation

As a guide, the following entries are already answered.
CCCCCCCCn1sc(Cl)c(Cl)c1=O :: inactive
CC1(C)CCC[C@]2(C)[C@H]3CC(=O)O[C@]3(C)CC[C@@H]12 :: inactive
CC(C)c1ccccc1C(C)C :: inactive
N[C@@H](CCC(=O)O)C(=O)O :: inactive

Challenge: Give reported activation value for CNCC[C@H](Oc1cccc2ccccc12)c1cccs1
Response given: inactive

Challenge: Give reported activation value for O=C(O)CO
Response given: inactive

Challenge: Give reported activation value for OCCOCC#CCOCCO
Response given: inactive

Challenge: Give reported activation value for COc1cc([N+](=O)[O-])ccc1N
Response given: inactive

Challenge: Give reported activation value for CC(C)c1ccc(O)c(C(C)C)c1
Response given: inactive

Challenge: Give reported activation value for CN1CCN(c2cc3c(nn2)Oc2ccccc2N3C)CC1
Response given: -0.0481% [at 11.8 µM] (inactive)

Challenge: Give reported activation value for CC(C)(N)C#N
Response given: inactive

Challenge: Give reported activation value for C[Si](C)(C)C
Response given: inactive

Challenge: Give reported activation value for Oc1ccccc1-c1nnco1
Response given: inactive

Challenge: Give reported activation value for CCCCCC=CCC=CCCCCCCCC(=O)OCC
Response given: inactive
